# particulars: unreacted oxycodone + four isomers of Formula IV; 1 mg/ml; 5% acetic acid 100° C.; 1 h
measuredEndpoint: % Oxycodone, % IVA-IVD in hydrolysis mixture (%)

compound="COc1ccc2c3c1O[C@H]1C(=O)CC[C@@]4(O)[C@@H](C2)N(C)CC[C@]314 [Oxycodone, oxycodone, reference compound]" number=69.6
compound="COc1ccc2c3c1O[C@H]1[C@@]4(CCC5(O)[C@@H](C2)N(C)CC[C@]315)O[C@H](C)C[C@H](C)O4 (some centres unmarked)" number=9.7
compound="COc1ccc2c3c1O[C@H]1C4(CCC5(O)[C@@H](C2)N(C)CC[C@]315)O[C@H](C)C[C@@H](C)O4 (some centres unmarked)" number=0
compound="COc1ccc2c3c1O[C@H]1C4(CCC5(O)[C@@H](C2)N(C)CC[C@]315)O[C@@H](C)C[C@H](C)O4 (some centres unmarked)" number=5.9
compound="COc1ccc2c3c1O[C@H]1[C@]4(CCC5(O)[C@@H](C2)N(C)CC[C@]315)O[C@H](C)C[C@H](C)O4 (some centres unmarked)" number=15.8

----------
Below, each of the compounds is paired with its reported % Oxycodone, % IVA-IVD in hydrolysis mixture value.
# particulars: unreacted oxycodone + four isomers of Formula IV; 1 mg/ml; 5% acetic acid 100° C.; 10 h
measuredEndpoint: % Oxycodone, % IVA-IVD in hydrolysis mixture (%)

compound="COc1ccc2c3c1O[C@H]1C4(CCC5(O)[C@@H](C2)N(C)CC[C@]315)O[C@@H](C)C[C@H](C)O4 (stereo partly drawn) [IVC, oxycodone 2S,4S-pentanediol ketal]" unitsofmeasure=% number=0
compound="COc1ccc2c3c1O[C@H]1[C@]4(CCC5(O)[C@@H](C2)N(C)CC[C@]315)O[C@H](C)C[C@H](C)O4 (stereo partly drawn) [IVA, oxycodone 2R,4S-pentanediol ketal]" unitsofmeasure=% number=0
compound="COc1ccc2c3c1O[C@H]1C4(CCC5(O)[C@@H](C2)N(C)CC[C@]315)O[C@H](C)C[C@@H](C)O4 (stereo partly drawn) [IVD, oxycodone 2R,4R-pentanediol ketal]" unitsofmeasure=% number=0
compound="COc1ccc2c3c1O[C@H]1[C@@]4(CCC5(O)[C@@H](C2)N(C)CC[C@]315)O[C@H](C)C[C@H](C)O4 (stereo partly drawn) [IVB, oxycodone 2S,4R-pentanediol ketal]" unitsofmeasure=% number=4.8
compound="COc1ccc2c3c1O[C@H]1C(=O)CC[C@@]4(O)[C@@H](C2)N(C)CC[C@]314 [Oxycodone, oxycodone, reference compound]" unitsofmeasure=% number=95.2

----------
# particulars: unreacted oxycodone + four isomers of Formula IV; 1 mg/ml; 5% acetic acid 100° C.; 0 h
measuredEndpoint: % Oxycodone, % IVA-IVD in hydrolysis mixture (%)

compound="COc1ccc2c3c1O[C@H]1[C@@]4(CCC5(O)[C@@H](C2)N(C)CC[C@]315)O[C@H](C)C[C@H](C)O4 (some centres unmarked)" number=10.9
compound="COc1ccc2c3c1O[C@H]1[C@]4(CCC5(O)[C@@H](C2)N(C)CC[C@]315)O[C@H](C)C[C@H](C)O4 (some centres unmarked)" number=24
compound="COc1ccc2c3c1O[C@H]1C(=O)CC[C@@]4(O)[C@@H](C2)N(C)CC[C@]314 [Oxycodone, oxycodone, reference compound]" number=10.3
compound="COc1ccc2c3c1O[C@H]1C4(CCC5(O)[C@@H](C2)N(C)CC[C@]315)O[C@@H](C)C[C@H](C)O4 (some centres unmarked)" number=36.2
compound="COc1ccc2c3c1O[C@H]1C4(CCC5(O)[C@@H](C2)N(C)CC[C@]315)O[C@H](C)C[C@@H](C)O4 (some centres unmarked)" number=17.6

The reported measurements were obtained from patent US11091496B2.
